Target: T-cell receptor (TCR)-CD3 interaction, human (TCR alpha chain TRAV4)
Experiment: potency of TCR-CD3 interaction inhibitors, dose response, biochemical, fluorescence, TAMRA-labeled TCR probe (AID 686957)
Conditions: TCR-CD3 binding
The source made the active and inactive calls. The rule behind the calls is not given here.
recordedMetric: IC50

Lookup result for CCCCCC(=O)NC(=S)NC1C2CC3CC(C2)CC1C3 (configuration not stated) ; measured IC50: > 94.1 µM (inactive)

Record summary for Cc1cc(Br)cc(/C=N/NC(=O)c2ccc3c(c2)OCO3)c1O : reported IC50 = > 94.1 µM (inactive)

// Oc1ccc(/C=N/Nc2ncnc3c2ncn3Cc2ccccc2)cc1O : IC50 value = > 94.1 µM (inactive)

Reported IC50 ( CCOC(=O)c1c(C)[nH]c(C(=O)N/N=C/c2cc([N+](=O)[O-])ccc2O)c1C ) = > 94.1 µM (inactive)

// field: IC50; key: O=C(NNC(=O)c1ccc2ccccc2c1O)c1cccs1 ; value = > 94.1 µM (inactive)

// IC50 lookup, molecule = Cc1cc([N+](=O)[O-])cc(/C=N\NC(=O)C2COc3ccccc3O2)c1O (configuration not stated) , result: > 94.2 µM (inactive)

// sample Cc1ccn2cc(-c3ccc(O)c(O)c3)nc2c1 , its IC50 was > 94.1 µM (inactive)

Per the record, O=C(NNC(=S)NC(=O)c1cccnc1)c1ccc(F)cc1 has IC50 of > 94.1 µM (inactive)

Given item CCOc1ccc(Nc2ccc(N)c(S(=O)(=O)O)c2)cc1 , the value recorded as its IC50 is > 94.1 µM (inactive)

IC50 reading for COc1ccc(CC(=O)N/N=C/c2cc([N+](=O)[O-])cc(Br)c2O)cc1 : > 94.1 µM (inactive)

For this molecule ( Cc1cc(C(=O)N/N=C/c2cc(Cl)cc([N+](=O)[O-])c2O)n[nH]1 ), measured IC50 is > 94.1 µM (inactive)

IC50 reading for Cc1cc(=O)oc2cc(OCC(=O)N/N=C/c3cc([N+](=O)[O-])ccc3O)ccc12 : > 94.1 µM (inactive)

Item: O=C(N/N=C/c1c(O)n(CCc2ccccc2)c(=O)[nH]c1=O)c1ccccc1O | IC50: > 94 µM (inactive)

// O=C(NNC(=O)c1cc(Cl)ccc1O)c1cccc(S(=O)(=O)N2CCOCC2)c1 : IC50 value = > 94.1 µM (inactive)

Just so you know, measured IC50 for CNC(=S)NNC(=O)c1oc2nc(-c3ccccc3)cc(-c3ccco3)c2c1N came out at > 94.1 µM (inactive)

Reported IC50 of COc1ccccc1NC(=O)NNC(=O)c1cc2ccccc2cc1O : > 94.1 µM (inactive)

Looking up Cc1ccc(C(=O)NNC(=O)c2ccc3ccccc3c2O)cc1 , I see its IC50 listed as > 94 µM (inactive)

Lookup result for O=c1cc(-c2ccc(O)cc2)oc2cc(O)c(C3OC(CO)C(O)C(O)C3O)c(O)c12 (configuration not stated) ; measured IC50: > 94.1 µM (inactive)

In plain terms, COc1cc(/C=N/NC(=O)c2cc(O)cc(O)c2)ccc1OC(=O)c1ccccc1 has a documented IC50 of > 94.1 µM (inactive)

# molecule CC(=O)c1ccc(NC(=O)CN2C(=O)/C(=C/C(C)=C/c3ccccc3)SC2=S)cc1 ; its IC50 = > 94.1 µM (inactive)

Reported IC50 for NC(=O)CCC1NC(=S)N(Cc2ccccc2)C1=O (configuration not stated) was > 94.1 µM (inactive)
